- Test system: EfPiwi piRISC loaded with L1MC piRNA (26 nt)
- assay-text: pre-steady-state target cleavage rate (min^-1); auxiliary factor: 500 nM Ephydatia muelleri Gtsf1; guide: L1MC piRNA 5'p-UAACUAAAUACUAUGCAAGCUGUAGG; MIWI and MILI are mouse PIWI proteins and EfPiwi is from a freshwater sponge; tags in brackets are library labels; higher = faster piRNA-guided slicing of the target
Classification field: y = pre-steady-state target cleavage rate at or over 0.005; n = pre-steady-state target cleavage rate under 0.005.

Incoming: I'd appreciate it if you could say whether UCCUGCUACUAGCUUGCAUAGUAUUUAGUUA has pre-steady-state target cleavage rate at least equal to 0.005.
Outgoing: y

Incoming: I'd appreciate it if you could say whether UCCUCCUACAGCUUGCUUAGUAUUUUGUUA has pre-steady-state target cleavage rate at least equal to 0.005.
Outgoing: y

Incoming: I'd appreciate it if you could say whether UCCUGCUACAGCUUGCAUAGUAUAUAGAAA has pre-steady-state target cleavage rate at least equal to 0.005.
Outgoing: n

Incoming: I'd appreciate it if you could say whether UCCUGGUACUGCUUGCAAAGUAUUUAGUUA has pre-steady-state target cleavage rate at least equal to 0.005.
Outgoing: y

Incoming: I'd appreciate it if you could say whether UCCUGGAUGUGCAUGCAUAGUAUUUAGUUA has pre-steady-state target cleavage rate at least equal to 0.005.
Outgoing: y

Incoming: I'd appreciate it if you could say whether UCCUGGAUGUCGAACGUAAGUAUUUCAGUUA has pre-steady-state target cleavage rate at least equal to 0.005.
Outgoing: n

Incoming: I'd appreciate it if you could say whether UCCUGCUUCAGCUUGCAUAGUAUUUACAAA has pre-steady-state target cleavage rate at least equal to 0.005.
Outgoing: n
